- Test system: SK-MEL-28 melanoma
- methodSummary: NCI tumour cell line growth inhibition, 48 h

{"compound": "CN(C)CCCNc1ccnc2cccc([N+](=O)[O-])c12", "readingQualifier": "=", "TGI (µM)": 35.4}
{"compound": "CCOc1ccc([Se][Se]c2ccc(OCC)cc2)cc1", "readingQualifier": ">", "TGI (µM)": 100}
{"compound": "COc1ccc(/C(C)=C(\\c2ccc(Cl)cc2)c2ccc(OCCN3CCCCC3)cc2)cc1", "readingQualifier": "=", "TGI (µM)": 8.4}
{"compound": "COc1ccc(C(C)c2cc3c(cc2O)OCO3)cc1 (stereo unspecified)", "readingQualifier": "=", "TGI (µM)": 33}
{"compound": "Cc1nnc2n1-c1ccccc1-c1[nH]c3ccccc3c1C2", "readingQualifier": ">", "TGI (µM)": 100}
{"compound": "O=C(C1OC1c1ccc(F)cc1)C12CC3CC(CC(C3)C1)C2 (stereo unspecified)", "readingQualifier": "=", "TGI (µM)": 59}

Reference source: PubChem BioAssay (NCI)
